TARGET: [GSPT1]-[compound of formula (I)]-[CRBN/DDB1] complex (Homo sapiens, UniProt P15170+Q96SW2)
Sequence (P15170 whole entry): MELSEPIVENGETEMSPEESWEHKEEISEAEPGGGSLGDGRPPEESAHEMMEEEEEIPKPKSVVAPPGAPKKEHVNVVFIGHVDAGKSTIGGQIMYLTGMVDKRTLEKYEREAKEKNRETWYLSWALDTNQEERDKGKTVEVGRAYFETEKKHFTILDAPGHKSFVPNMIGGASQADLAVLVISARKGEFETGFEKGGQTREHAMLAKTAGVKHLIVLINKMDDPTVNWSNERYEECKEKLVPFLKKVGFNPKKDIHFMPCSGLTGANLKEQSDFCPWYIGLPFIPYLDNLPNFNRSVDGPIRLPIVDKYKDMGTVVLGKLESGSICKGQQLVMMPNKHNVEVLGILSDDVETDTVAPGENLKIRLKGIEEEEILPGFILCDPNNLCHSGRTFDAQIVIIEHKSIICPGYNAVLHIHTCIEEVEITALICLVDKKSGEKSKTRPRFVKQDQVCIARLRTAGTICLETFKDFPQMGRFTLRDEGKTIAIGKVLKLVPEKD
Sequence (Q96SW2 whole entry): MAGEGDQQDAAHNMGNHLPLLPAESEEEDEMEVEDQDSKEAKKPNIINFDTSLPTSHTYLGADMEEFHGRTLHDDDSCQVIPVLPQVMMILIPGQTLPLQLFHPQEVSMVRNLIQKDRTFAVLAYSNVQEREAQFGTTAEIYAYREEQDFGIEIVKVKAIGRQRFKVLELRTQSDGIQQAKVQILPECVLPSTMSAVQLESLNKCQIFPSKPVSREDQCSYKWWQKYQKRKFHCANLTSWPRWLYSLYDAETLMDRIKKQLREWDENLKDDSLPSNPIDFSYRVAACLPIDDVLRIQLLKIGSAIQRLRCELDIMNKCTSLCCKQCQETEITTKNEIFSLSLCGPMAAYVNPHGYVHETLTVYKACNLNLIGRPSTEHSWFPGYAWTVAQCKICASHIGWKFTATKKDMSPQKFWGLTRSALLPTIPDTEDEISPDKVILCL
Sequence (Q16531 whole entry partner): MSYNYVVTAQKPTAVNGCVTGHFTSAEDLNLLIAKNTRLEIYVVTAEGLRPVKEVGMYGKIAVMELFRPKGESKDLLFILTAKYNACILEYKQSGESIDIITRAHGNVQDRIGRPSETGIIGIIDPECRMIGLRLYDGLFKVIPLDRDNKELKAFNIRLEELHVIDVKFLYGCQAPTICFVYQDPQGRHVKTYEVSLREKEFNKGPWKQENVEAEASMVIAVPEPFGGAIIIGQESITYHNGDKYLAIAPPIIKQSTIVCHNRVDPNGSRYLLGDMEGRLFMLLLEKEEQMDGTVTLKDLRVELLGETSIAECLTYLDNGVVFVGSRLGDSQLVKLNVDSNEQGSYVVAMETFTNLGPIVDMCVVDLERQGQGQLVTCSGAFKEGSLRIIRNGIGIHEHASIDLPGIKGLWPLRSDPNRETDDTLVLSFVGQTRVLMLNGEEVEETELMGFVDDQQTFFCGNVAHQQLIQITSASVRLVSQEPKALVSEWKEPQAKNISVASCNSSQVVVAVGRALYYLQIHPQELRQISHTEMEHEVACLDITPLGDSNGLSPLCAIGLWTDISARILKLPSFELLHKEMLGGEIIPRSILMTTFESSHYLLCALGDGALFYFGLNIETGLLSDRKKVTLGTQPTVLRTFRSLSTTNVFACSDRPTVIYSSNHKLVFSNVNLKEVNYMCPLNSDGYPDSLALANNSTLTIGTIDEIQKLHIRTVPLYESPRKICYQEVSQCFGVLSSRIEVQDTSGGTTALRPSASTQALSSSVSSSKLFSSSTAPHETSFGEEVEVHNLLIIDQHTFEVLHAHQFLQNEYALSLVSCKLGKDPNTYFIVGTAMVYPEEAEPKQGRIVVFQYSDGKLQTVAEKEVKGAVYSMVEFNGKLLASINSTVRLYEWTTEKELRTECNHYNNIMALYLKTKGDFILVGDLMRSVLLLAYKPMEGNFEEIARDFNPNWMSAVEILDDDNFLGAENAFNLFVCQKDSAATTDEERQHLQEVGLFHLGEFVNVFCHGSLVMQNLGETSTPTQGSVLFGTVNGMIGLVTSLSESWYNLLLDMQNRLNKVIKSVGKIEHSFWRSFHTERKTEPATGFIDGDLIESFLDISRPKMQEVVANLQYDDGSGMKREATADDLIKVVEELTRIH
EXPERIMENT SUMMARY: HTRF ternary complex assay (GSPT1)
Type: binding
SETTINGS: read-out: HTRF ternary complex Average pEC50 by molecule (converted)
Item-by-item account of EC50

MOLECULE | EC50
Cc1ncc(NC(=O)OCc2ccc3cc(C4CCC(=O)NC4=O)c(C)nc3c2)cc1Cl (centres unmarked) [Compound 58] | 0.316 to 3.16 µM
COc1cc(C)c(Cl)cc1NC(=O)OCc1ccc2cc(C3CCC(=O)NC3=O)c(C)nc2c1 (centres unmarked) [Compound 21] | 0.316 to 3.16 µM
Cc1ccc(NC(=O)NCc2ccc3cc(N4CCC(=O)NC4=O)c(C)nc3c2)cc1Cl [Compound 27] | < 0.316 µM
Cc1ccc(NC(=O)OCc2ccc3nc(C)c(N4CCC(=O)NC4=O)cc3c2)cc1Cl [Compound 29] | > 3.16 µM
Cc1nc2cc(COC(=O)Nc3cc(C(C)(C)C)on3)ccc2cc1C1CCC(=O)NC1=O (centres unmarked) [Compound 70] | < 0.316 µM
Cc1nc2cc(COC(=O)Nc3cc(C(C)(C)C)no3)ccc2cc1C1CCC(=O)NC1=O (centres unmarked) [Compound 30] | 0.316 to 3.16 µM
Cc1nc2cc(COC(=O)NC3CCC(C(C)(C)C)CC3)ccc2cc1C1CCC(=O)NC1=O (centres unmarked) [Compound 55] | 0.316 to 3.16 µM
Cc1nc2cc(COC(=O)Nc3cc(OC(F)(F)F)ccc3F)ccc2cc1C1CCC(=O)NC1=O (centres unmarked) [Compound 6] | 0.316 to 3.16 µM
Cc1ccc(NC(=O)OCc2ccc3cc([C@@H]4CCC(=O)NC4=O)c(C)nc3c2)cc1Cl [Compound 38] | 0.316 to 3.16 µM
Cc1ccc(NC(=O)OCc2ccc3nc(C)c(C4CCC(=O)NC4=O)cc3c2)cc1Cl (centres unmarked) [Compound 5] | > 3.16 µM
Cc1nc2cc(COC(=O)Nc3ccc(-c4ccccc4)nc3)ccc2cc1C1CCC(=O)NC1=O (centres unmarked) [Compound 20] | < 0.316 µM
Cc1nc2cc(COC(=O)Nc3ccc(N4CCOCC4)nc3)ccc2cc1C1CCC(=O)NC1=O (centres unmarked) [Compound 42] | 0.316 to 3.16 µM
Cc1nc2cc(COC(=O)Nc3cc(C4(C(F)(F)F)CC4)no3)ccc2cc1C1CCC(=O)NC1=O (centres unmarked) [Compound 81] | < 0.316 µM
Cc1nc2cc(COC(=O)Nc3cccc(OC(F)(F)F)c3)ccc2cc1C1CCC(=O)NC1=O (centres unmarked) [Compound 19] | > 3.16 µM
Cc1nc2ccc(COC(=O)Nc3cc(C(C)(C)C)no3)cc2cc1N1CCC(=O)NC1=O [Compound 66] | 0.316 to 3.16 µM
Cc1nc2cc(COC(=O)Nc3csc(-c4ccccc4)c3)ccc2cc1C1CCC(=O)NC1=O (centres unmarked) [Compound 37] | 0.316 to 3.16 µM
Cc1nc2cc(COC(=O)Nc3cc(C(F)(F)F)no3)ccc2cc1C1CCC(=O)NC1=O (centres unmarked) [Compound 71] | > 3.16 µM
Cc1nc2cc(COC(=O)Nc3ccc(C(C)(C)C)cc3)ccc2cc1C1CCC(=O)NC1=O (centres unmarked) [Compound 8] | 0.316 to 3.16 µM
Cc1nc2cc(COC(=O)Nc3ccc(Cl)c(Cl)c3)ccc2cc1C1CCC(=O)NC1=O (centres unmarked) [Compound 12] | 0.316 to 3.16 µM
Cc1nc2cc(COC(=O)Nc3cccc(C(C)(C)C)c3)ccc2cc1C1CCC(=O)NC1=O (centres unmarked) [Compound 9] | 0.316 to 3.16 µM
Cc1ccc(Nc2c(NCc3ccc4cc(C5CCC(=O)NC5=O)c(C)nc4c3)c(=O)c2=O)cc1Cl (centres unmarked) [Compound 3] | > 3.16 µM
Cc1nc2ccc(COC(=O)NC3CCCCC3)cc2cc1N1CCC(=O)NC1=O [Compound 60] | 0.316 to 3.16 µM
Cc1nc2cc(COC(=O)Nc3cc(C(F)(F)F)n[nH]3)ccc2cc1C1CCC(=O)NC1=O (centres unmarked) [Compound 69] | 0.316 to 3.16 µM
